Tested on: HOP-62
Assay: NCI 60 cell panel SRB screen
Assay type: cell-based
Conditions: Homo sapiens; HOP-62, single dose 10 μM; read-out: percent cell growth promotion
Would you please tag the item label 1 when its activity at 10 µM is 30% or above, and label 0 when it is below?

Asked: Evaluate Cc1nnc(Nc2ccc(NC(=O)Nc3ccc(Cl)cc3)cc2)c2ccccc12 : activity at 10 µM at minimum 30%?
Given back: label 1

Asked: Item Cc1nnc(N2CCN(c3ccccn3)CC2)c2ccccc12 with activity at 10 µM of 30% or above?
Given back: label 1

Asked: Has O=C(Nc1ccccc1)Nc1ccc(Oc2nnc(Cl)c3ccccc23)cc1 [Compound 13a] a recorded activity at 10 µM greater than or equal to 30%?
Given back: label 0

Asked: Could you please find out whether Cc1nnc(N2CCN(c3ccccc3)CC2)c2ccccc12 has activity at 10 µM that meets 30% or exceeds it?
Given back: label 1

Asked: Has Clc1ccc(Nc2nnc(COc3ccccc3)c3ccccc23)cc1 [Compound 17a] a recorded activity at 10 µM greater than or equal to 30%?
Given back: label 0

Asked: Answer whether activity at 10 µM of COc1cccc(NCc2nnc(Nc3ccc(Cl)cc3)c3ccccc23)c1 [Compound 16d] is greater than or equal to 30%.
Given back: label 0

Asked: Check if activity at 10 µM >= 30% (inclusive). Item: c1ccc(N2CCN(c3nncc4ccccc34)CC2)nc1
Given back: label 1

Asked: Tell me whether activity at 10 µM is at least 30% here: CCOC(=O)N1CCN(c2nncc3ccccc23)CC1
Given back: label 1

Asked: Is activity at 10 µM at least 30%? Consider O=C(Nc1ccc(Cl)cc1)Nc1ccc(Oc2nncc3ccccc23)cc1
Given back: label 0

Asked: Is reported activity at 10 µM greater than or equal to 30% here: O=C(Nc1ccc(Cl)cc1)Nc1ccc(Nc2nncc3ccccc23)cc1
Given back: label 0

Asked: Does the compound O=C(Nc1ccc(Cl)cc1)Nc1ccc(Oc2nnc(Cl)c3ccccc23)cc1 [Compound 13b] have recorded activity at 10 µM that is 30% or more?
Given back: label 1

Asked: Does activity at 10 µM meet or surpass 30% for Clc1ccc(Nc2nnc(CNc3ccccc3)c3ccccc23)cc1 [Compound 16a] ?
Given back: label 0

Asked: Exam item: decide whether the reported activity at 10 µM for Cc1nnc(Nc2ccc(NC(=O)c3ccc(Cl)cc3)cc2)c2ccccc12 is at least 30%.
Given back: label 1

Asked: In plain terms: is recorded activity at 10 µM at least 30% for O=C(Nc1ccc(Nc2nncc3ccccc23)cc1)c1ccc(Cl)cc1 ?
Given back: label 1

Asked: Does activity at 10 µM meet or surpass 30% for Cc1nnc(N2CCN(c3ccccc3F)CC2)c2ccccc12 ?
Given back: label 1

Asked: Test whether the compound CCOC(=O)N1CCN(c2nnc(C)c3ccccc23)CC1 records activity at 10 µM of 30% or higher.
Given back: label 1

Asked: Hi team, for Cc1nnc(Oc2ccc(NC(=O)Nc3ccc(Cl)cc3)cc2)c2ccccc12 , is the recorded activity at 10 µM at or above 30%?
Given back: label 1
